- protocolDetails: viability loss with induced miR-34 in A549 – imaging, A549 dox-inducible miR-34, nuclei and caspase counts, primary screen (AID 1347080); note: test concentration not given here
- testContext: A549 miR-34 inducible, Hoechst nuclei count, 48 h; hits give low values; cell number ratio, induced over uninduced
measurementName: fold change
Kindly provide the number alone.

Known fold change results, listed for orientation:
CCCCCCCCCCOc1ccc(OCC(=O)Cn2cc(C(=O)OC)c3cc(C(=O)O)ccc32)cc1 ... 0.961
N=C(N)SCCC[C@H](N)C(=O)O ... 0.98
CCCCCCCCCCCCCCC(=O)N[C@H]1CCOC1=O ... 0.982
COc1ccccc1N1CCN(CCn2c(=O)[nH]c3c([nH]c4ccccc43)c2=O)CC1 ... 0.88

# next molecule below
Recall and state the measured fold change for COc1cccc2cc(-c3nc(C4CCC(C(=O)O)CC4)n4ncnc(N)c34)[nH]c12 (stereo not given) .
0.965
